Source: patent US20180057596A1

Consider the following binders and their measured kon readings.
subject-of-test: T1, cynomolgus IL-4Rα HIS FLAG (cynomolgus)
T1 construct: also called Cyno IL4Rα HIS FLAG; not shown: HIS and FLAG tags and any vector-encoded linker of the cynomolgus HIS FLAG construct
T1 chain: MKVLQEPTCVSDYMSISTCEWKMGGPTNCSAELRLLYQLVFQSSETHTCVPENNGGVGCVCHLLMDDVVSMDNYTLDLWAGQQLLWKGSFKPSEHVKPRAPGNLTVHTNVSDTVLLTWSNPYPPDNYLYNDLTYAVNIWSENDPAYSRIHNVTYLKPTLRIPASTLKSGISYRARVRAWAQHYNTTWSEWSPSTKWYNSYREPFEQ
assay-method-text: SPR (BIAcore 2000), IgG captured on Protein G', receptor as analyte, 1:1 Langmuir
Experimental: In brief, Protein G′ (Sigma Aldrich, P4689) was covalently coupled to the surface of a CM5 sensor chip using standard amine coupling reagents according to manufacturer's instructions (BIAcore). This Protein G′ surface was used to capture a constant amount of purified anti-IL4R• antibodies or isotype control via the Fc domain. […] The resulting sensorgrams were evaluated using BIA evaluation 4.1 software and fitted to 1:1 Langmuir binding model, to provide the relative binding data. […]
Hi! Could you send only the number? It should be in M⁻¹ s⁻¹, unit omitted.

The following binders have reported results that may help.
• Antibody 2 IgG (antibody, V domains shown) VH: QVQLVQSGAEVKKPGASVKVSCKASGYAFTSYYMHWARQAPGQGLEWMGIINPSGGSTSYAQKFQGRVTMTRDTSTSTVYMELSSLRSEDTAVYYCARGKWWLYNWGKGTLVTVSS VL: QSVLTQPPSVSAAPGQKVTISCSGGSSNIGNSYVSWYQQLPGTAPKLLIYDNNKRPSGIPDRFSGSKSGTSATLAITGLQTGDEADYYCGTWDTSQPPNPLFGTGTKLTVL = 96700
• Antibody 20 IgG (antibody, V domains shown) VH: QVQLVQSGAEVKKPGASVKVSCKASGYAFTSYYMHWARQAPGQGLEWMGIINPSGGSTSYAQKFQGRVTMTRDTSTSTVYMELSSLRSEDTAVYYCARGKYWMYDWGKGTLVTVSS VL: QSVLTQPPSVSAAPGQKVTISCSGGSSNIGNSYVSWYQQLPGTAPKLLIYDNNKRPSGIPDRFSGSKSGTSATLAITGLQTGDEADYYCGTWDTSTVWEWPFGTGTKLTVL = 163000

I have this binder here, Antibody 37 IgG (antibody, V domains shown) VH: QVQLVQSGAEVKKPGASVKVSCKASGYAFTSYYMHWARQAPGQGLEWMGIINPRGGSTSYAQKFQGRVAMTRDTSTSTVYMELSSLRPEDTAVYYCARGKYWMYDWGKGTLVTVSS VL: QSVLTQPPSVSAAPGQKVTISCSGGGSSIGNSYVSWYQQLPGTAPKLLIYDNNKRPSGVPDRFSGSKSGTSATLAITGLQTGDEADYYCGTWDTSPVWEWPFGTGTKLTVL , and I need its recorded kon. 243000

Can you share its kon? I mean this binder: Antibody 9 IgG (antibody, V domains shown) VH: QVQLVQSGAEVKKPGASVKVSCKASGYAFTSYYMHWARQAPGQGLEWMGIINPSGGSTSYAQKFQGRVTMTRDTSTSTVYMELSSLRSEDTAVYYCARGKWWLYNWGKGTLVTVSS VL: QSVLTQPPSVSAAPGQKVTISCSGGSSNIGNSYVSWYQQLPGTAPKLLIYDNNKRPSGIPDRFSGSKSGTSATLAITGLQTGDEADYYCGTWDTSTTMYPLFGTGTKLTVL 131000
